test: in vitro; conditions: African green monkey, VeroE6 + CP (CC50), Vero E6-eGFP cells with CP-100356, absence of virus, MTS; numeric bounds
quantity-kind: CC50

>>> value_measured("O=C1NCC[C@H]1C[C@H](NC(=O)[C@@H]1[C@H]2CCC[C@H]2CN1C(=O)c1cc2c(Cl)ccc(C(F)(F)F)c2[nH]1)C(=O)CO [Compound 117]")
"> 50 µM"
>>> value_measured("COc1cc(C(F)(F)F)cc2[nH]c(C(=O)N3C[C@@H]4CCC[C@@H]4[C@H]3C(=O)N[C@@H](C[C@@H]3CCNC3=O)C(=O)CO)cc12 [Compound 163]")
"> 50 µM"
>>> value_measured("COc1cccc2[nH]c(C(=O)N3C[C@@H]4CCC[C@@H]4[C@H]3C(=O)N[C@@H](C[C@@H]3CCNC3=O)C(=O)COP(=O)(O)O)cc12 [Compound 61]")
"> 100 µM"
>>> value_measured("COc1cccc2[nH]c(C(=O)N3C[C@]4(C[C@H]3C(=O)NC(C[C@@H]3CCCNC3=O)C(=O)C(=O)NC3CC3)CC4(F)F)cc12 (stereo partly drawn) [Compound 38]")
"> 100 µM"
>>> value_measured("O=C1NCC[C@H]1C[C@H](NC(=O)[C@@H]1[C@H]2CCC[C@H]2CN1C(=O)c1cc2c(Cl)ccc(-c3ccccc3)c2[nH]1)C(=O)CO [Compound 168]")
"> 50 µM"
>>> value_measured("O=C[C@H](C[C@@H]1CCNC1=O)NC(=O)[C@@H]1[C@H]2CCC[C@H]2CN1C(=O)c1cc2ccccc2[nH]1 [Compound 13]")
"> 100 µM"
>>> value_measured("COc1cccc2[nH]c(C(=O)N3C[C@H]4[C@@H]([C@H]3C(=O)N[C@@H](C[C@@H]3CCNC3=O)C(=O)C(N)=O)C4(C)C)cc12 [Compound 51]")
"> 100 µM"
>>> value_measured("O=C1NCC[C@H]1C[C@H](NC(=O)[C@@H]1[C@H]2CCC[C@H]2CN1C(=O)c1cc(-c2ccccc2)c[nH]1)C(=O)CO [Compound 79]")
"> 50 µM"
>>> value_measured("COc1cccc2[nH]c(C(=O)N3C[C@@H]4CCC[C@@H]4[C@H]3C(=O)N[C@@H](CN3CC[C@H](O)C3=O)C(=O)C(=O)NC3CC3)cc12 [Compound 115]")
"> 50 µM"
>>> value_measured("O=C1NCC[C@H]1C[C@H](NC(=O)[C@@H]1[C@H]2CCC[C@H]2CN1C(=O)c1cc2c(Cl)ccc(Oc3ccccc3)c2[nH]1)C(=O)CO [Compound 137]")
"> 50 µM"
>>> value_measured("COc1cccc2[nH]c(C(=O)N3C[C@@H]4CCC[C@@H]4[C@H]3C(=O)N[C@@H](CN3C[C@H](O)CC3=O)C(=O)C(=O)NC3CC3)cc12 [Compound 178]")
"> 50 µM"
>>> value_measured("COc1cccc2[nH]c(C(=O)N3C[C@@H]4CCC[C@@H]4[C@H]3C(=O)N[C@@H](C[C@@H]3CCNC3=O)C(=O)c3ncc[nH]3)cc12 [Compound 54]")
"> 100 µM"

====

target: human cathepsin L (Homo sapiens); construct: purchased R&D Systems; assay: cathepsin L assay; type: biochemical; details: 10 pM human cathepsin L, Z-FR-AMC 2 μM, class symbols
Each item that follows carries a reported IC50.
quantity-kind: IC50

>>> value_measured("Cn1c(C(=O)N2CCC3(CC3)C[C@H]2C(=O)N[C@@H](C[C@@H]2CCNC2=O)C(=O)C(=O)NC2CC2)cc2ccccc21 [Compound 172]")
"1 to 10 µM"
>>> value_measured("COc1cccc2[nH]c(C(=O)N3CC4(C5CC5)CC3(C(=O)N[C@@H](C[C@@H]3CCNC3=O)C(=O)C(=O)NC3CC3)C4)cc12 [Compound 131]")
"≥ 10 µM"
>>> value_measured("O=C(NCc1ccccc1)C(=O)C(C[C@@H]1CCCNC1=O)NC(=O)[C@@H]1[C@H]2CCC[C@H]2CN1C(=O)c1cc2ccccc2[nH]1 (stereo partly drawn) [Compound 17]")
"1 to 10 µM"
>>> value_measured("O=C(NC1CC1)C(=O)[C@H](C[C@@H]1CCNC1=O)NC(=O)[C@@H]1CC2(CCN1C(=O)c1cc3c(Cl)cccc3[nH]1)CC2 [Compound 145]")
"0.1 to 1 µM"
>>> value_measured("CC(C)C(=O)OCC(=O)[C@H](C[C@@H]1CCNC1=O)NC(=O)[C@@H]1[C@H]2CCC[C@H]2CN1C(=O)c1cc2c(Cl)cc(Cl)cc2[nH]1 [Compound 125]")
"≥ 10 µM"
>>> value_measured("COc1cccc2[nH]c(C(=O)N3C[C@@H]4CCC[C@@H]4[C@H]3C(=O)N[C@@H](CN3CCCNC3=O)C(=O)C(=O)NC3CC3)cc12 [Compound 118]")
"≥ 10 µM"
>>> value_measured("COc1cccc2[nH]c(C(=O)N3C[C@@H]4CCC[C@@H]4[C@H]3C(=O)NC(C[C@@H]3CCNC3=O)C(=O)C(N)=O)cc12 (stereo partly drawn) [Compound 56]")
"≥ 10 µM"
>>> value_measured("Cc1ccc2[nH]c(C(=O)N3CCC4(CC4)C[C@H]3C(=O)N[C@@H](C[C@@H]3CCNC3=O)C(=O)C(=O)NC3CC3)cc2c1 [Compound 146]")
"1 to 10 µM"
>>> value_measured("O=C1NCC[C@H]1C[C@H](NC(=O)[C@@H]1[C@H]2CCC[C@H]2CN1C(=O)c1cc2c(OC(F)F)cc(Cl)cc2[nH]1)C(=O)CO [Compound 126]")
"≥ 10 µM"
>>> value_measured("COc1cccc2[nH]c(C(=O)N3C[C@@H]4CCC[C@@H]4[C@H]3C(=O)N[C@@H](C[C@@H]3CCNC3=O)C(=O)C(=O)NCCOc3ccccc3)cc12 [Compound 134]")
"≥ 10 µM"
>>> value_measured("COc1cccc2[nH]c(C(=O)N3C[C@@H]4CCC[C@@H]4[C@H]3C(=O)N[C@@H](C[C@@H]3CCNC3=O)C(=O)C(=O)NCCO)cc12 [Compound 107]")
"≥ 10 µM"
>>> value_measured("COc1ccc(Br)c2[nH]c(C(=O)N3C[C@@H]4CCC[C@@H]4[C@H]3C(=O)N[C@@H](C[C@@H]3CCNC3=O)C(=O)CO)cc12 [Compound 124]")
"≥ 10 µM"
